biological target: biotinylated His-Avi-TEAD (194-411) (UniProt P28347); assay: SSM screen, enrichment after two rounds of sorting
Entries annotated with measured enrichment score
API doc: respond with a numeric literal and nothing else, no unit.

Sample answers from the record:
Endpoint output: enrichment score of GSPDEYIEDAKECCKKGDIQCCLRYFEESGDPNVMLICLFCP (designed binder) [R07D variant of SEQ ID NO: 1] . Value?
-2.25

Endpoint output: enrichment score of GSPDEYIERAKECCKTGDIQCCLRYFEESGDPNVMLICLFCP (designed binder) [K14T variant of SEQ ID NO: 1] . Value?
3.18

Endpoint output: enrichment score of GSPHEYIERAKECCKKGDIQCCLRYFEESGDPNVMLICLFCP (designed binder) [D02H variant of SEQ ID NO: 1] . Value?
-1.05

More entries:
Endpoint output: enrichment score of GSPDEYIERAKECCKKGDIFCCLRYFEESGDPNVMLICLFCP (designed binder) [Q18F variant of SEQ ID NO: 1] . Value?
-4.21

Endpoint output: enrichment score of GSPDEYIERAKECCEKGDIQCCLRYFEESGDPNVMLICLFCP (designed binder) [K13E variant of SEQ ID NO: 1] . Value?
-0.1
